Provide the recorded Activity for the entries that follow.
System: Rattus norvegicus
Assay: Antianxiety activity in Long-Evans rat assessed as reduction in motor activity at 10 mg/kg, po after 2 hrs relative to vehicle-treated control
Format: functional
Set-up: scale not given: the % may be the effect or the level left
Answers are plain numbers, in %.

Record Activity for all entries; do not skip any.
1. CC(C)=CCN1CC[C@]2(C)c3cc(O)ccc3C[C@H]1[C@H]2C [(+)-PENTAZOCINE]
2. CC1CCC2=C(C1)c1c(OC(=O)CCCN3CCCCC3)cc(C(C)CCCc3ccc(F)cc3)cc1OC2(C)C.Cl (centres undefined)
3. C#CCN1CCC2=C(C1)c1c(O)cc(C(C)C(C)CCc3ccc(F)cc3)cc1OC2(C)C (centres undefined)
4. Br.CC(CCCc1ccc(F)cc1)c1cc(O)c2c(c1)OC(C)(C)C1=C2C2CCN1CC2 (centres undefined)

[out]
1. 30
2. 95
3. 73
4. 46

* * *

Would you mind telling me the reported Activity of each entry?
Tested on: Rattus norvegicus
Experiment: Antipsychotic activity in rat assessed as reduction of methamphetamine-induced hyperactivity at 2 mg/kg, po administered prior to methamphetamine challenge relative to vehicle-treated control
Type: functional
Parameters: scale not given: the % may be the effect or the level left
Give bare numbers, in %.

[[record]]
compound = "CC1CCC2=C(C1)c1c(O)cc(C(C)CCCc3ccccc3)cc1OC2(C)C (centres undefined)"
endpoint = "Activity"
result_units = "%"
result_number = 46

[[record]]
compound = "CC1CSC2=C1c1c(O)cc(C(C)CCCc3ccc(F)cc3)cc1OC2(C)C (centres undefined)"
endpoint = "Activity"
result_units = "%"
result_number = 55

[[record]]
compound = "CC1CCC2=C(C1)c1c(O)cc(C(C)C(C)CCc3ccc(F)cc3)cc1OC2(C)C (centres undefined)"
endpoint = "Activity"
result_units = "%"
result_number = 62


Could you now look at the following compound, please?
[in] Tell me the measured Activity of CC1CCC2=C(C1)c1c(O)cc(C(C)CCCc3ccc(F)cc3)cc1OC2(C)C (centres undefined) , please.
[out] 70

* * *

Test system: Rattus norvegicus
Assay: Antihypertensive activity in spontaneously hypertensive rat model assessed as reduction in blood pressure at 30 mg/kg, po after 24 hrs
Type: functional
Set-up: scale not given: the % may be the effect or the level left
Assign Activity to each entry below.
Answers are plain numbers, in %.

[[record]]
compound = "CC1CCC2=C(C1)c1c(O)cc(C(C)CCCN(C)C)cc1OC2(C)C (centres undefined)"
result_units = "%"
result_number = 6

[[record]]
compound = "C#CCN1CCC2=C(C1)c1c(O)cc(C(C)CCCCc3ccc(F)cc3)cc1OC2(C)C (centres undefined)"
result_units = "%"
result_number = 0

[[record]]
compound = "C#CCN1CCC2=C(C1)c1c(O)cc(CCCCC)cc1OC2(C)C"
result_units = "%"
result_number = 9


Now for the compound whose Activity we want.
[in] Quick one: Activity for C#CCN1CCC2=C(C1)c1c(O)cc(C(C)CCc3ccc(F)cc3)cc1OC2(C)C (centres undefined) ?
[out] 13

* * *

System: Rattus norvegicus
Assay: Antianxiety activity in Long-Evans rat assessed as reduction in motor activity at 5 mg/kg, po after 2 hrs relative to vehicle-treated control
Format: functional
Parameters: scale not given: the % may be the effect or the level left
I'd appreciate it if you could supply Activity values for the items below.
Answer shape: numeric part, then the unit.

[[record]]
compound = "Br.CC(CCCc1ccc(F)cc1)c1cc(O)c2c(c1)OC(C)(C)C1=C2C2CCN1CC2 (stereo not given)"
endpoint = "Activity"
result = "23%"


Provide Activity values for the following items, in order.
1. CC1CCC2=C(C1)c1c(O)cc(C(C)CCCCc3ccc(F)cc3)cc1OC2(C)C (stereo not given)
2. CC1CCC2=C(C1)c1c(O)cc(C(C)C(C)CCc3ccncc3)cc1OC2(C)C (stereo not given)
3. C#CCN1CCC2=C(C1)c1c(OC(=O)CCCN3CCOCC3)cc(C(C)CCCc3ccc(F)cc3)cc1OC2(C)C.Cl.Cl (stereo not given)
4. CCCCCC(C)C(C)c1cc(O)c2c(c1)OC(C)(C)C1=C2CC(C)CC1 (stereo not given)

[out]
1: 73%; 2: 42%; 3: 48%; 4: 96%

* * *

Test system: Mus musculus
Experiment: Analgesic activity in mouse assessed as inhibition of acetic acid-induced writhing at 10 mg/kg, po administered 30 mins prior to acetic acid challenge measured after 5 mins for 20 mins
Type: functional
Rule: inhibition in vivo at 10 mg/kg of 30% or more gives true; anything lower gives false.

[[record]]
compound = "CC1CCC2=C(C1)c1c(O)cc(C(C)C(C)CCCc3ccc(F)cc3)cc1OC2(C)C (configuration not stated)"
label_class = "true"

[[record]]
compound = "CC1CCC2=C(C1)c1c(O)cc(C(C)C(C)Cc3ccc(F)cc3)cc1OC2(C)C (configuration not stated)"
label_class = "true"

[[record]]
compound = "CC1CCC2=C(C1)c1c(O)cc(CCCCCc3ccc(F)cc3)cc1OC2(C)C (configuration not stated)"
label_class = "true"

[[record]]
compound = "C#CCN1CCC2=C(C1)c1c(O)cc(C(C)CCc3ccc(F)cc3)cc1OC2(C)C (configuration not stated)"
label_class = "false"


[in] Check this compound for inhibition in vivo at 10 mg/kg at or above 30%: C#CCN1CCC2=C(C1)c1c(O)cc(C(C)C(C)CCCc3ccc(F)cc3)cc1OC2(C)C (configuration not stated)
[out] true

[in] Decide: inhibition in vivo at 10 mg/kg of CC1CCC2=C(C1)c1c(O)cc(C(C)CCc3ccc(F)cc3)cc1OC2(C)C (configuration not stated) >= 30%?
[out] false

* * *

System: Felis catus
Assay: Hypnotic activity in cat assessed as increase in total sleep time at 0.5 mg/kg administered orally through diet measured for 12 hrs by EEG analysis
Type: functional
Conditions: route oral
Give measured Time for each item. Keep answers brief.
The reply must contain the numeric value and, after it, the unit.

Worked cases, Time given:
[[record]]
compound = "C#CCN1CCC2=C(C1)c1c(O)cc(CCCCC)cc1OC2(C)C"
result = "28 min"

[[record]]
compound = "CC1CCC2=C(C1)c1c(OC(=O)CCCN3CCCCC3)cc(C(C)CCCc3ccc(F)cc3)cc1OC2(C)C.Cl (stereo unspecified)"
result = "50 min"

[[record]]
compound = "CCCCCC(C)C(C)c1cc(O)c2c(c1)OC(C)(C)C1=C2CC(C)CC1 (stereo unspecified)"
result = "62 min"


Hi team, please reply with Time for each item in this list.
1. CC1CCC2=C(C1)c1c(O)cc(C(C)CCCc3ccccc3)cc1OC2(C)C (stereo unspecified)
2. C#CCN1CCC2=C(C1)c1c(O)cc(C(C)CCCc3ccc(F)cc3)cc1OC2(C)C (stereo unspecified)

[out]
28 min
99 min

Give Time for each of the items listed below.
1. C#CCN1CCC2=C(C1)c1c(O)cc(C(C)CCCCc3ccc(F)cc3)cc1OC2(C)C (stereo unspecified)
2. C#CCN1CCC2=C(C1)c1c(O)cc(C(C)C(C)CCCCC)cc1OC2(C)C (stereo unspecified)
3. CC1CCC2=C(C1)c1c(OC(=O)CCCN3CCOCC3)cc(C(C)CCCc3ccc(F)cc3)cc1OC2(C)C.Cl (stereo unspecified)
4. CC1CSC2=C1c1c(O)cc(C(C)CCCc3ccc(F)cc3)cc1OC2(C)C (stereo unspecified)

[out]
61 min
44 min
16 min
11 min

Field: Time. Fill in for each record below.
1. C#CCN1CCC2=C(C1)c1c(OC(=O)CCCN3CCCCC3)cc(C(C)CCCc3ccc(F)cc3)cc1OC2(C)C.Cl (stereo unspecified)
2. C#CCN1CCC2=C(C1)c1c(O)cc(C(C)C(C)CCc3ccc(F)cc3)cc1OC2(C)C (stereo unspecified)

[out]
["47 min", "58 min"]

* * *

Test: Acute toxicity in po dosed mouse
Format: organism-based
Settings: in vivo
ENDPOINT: LD50

Sample records with LD50:
[[record]]
compound = "C#CCN1CCC2=C(C1)c1c(O)cc(C(C)CCc3ccc(F)cc3)cc1OC2(C)C (stereo not drawn)"
result = "≥ 1000 mg/kg"

[[record]]
compound = "CC1CCC2=C(C1)c1c(O)cc(C(C)C(C)Cc3ccc(F)cc3)cc1OC2(C)C (stereo not drawn)"
result = "≥ 1000 mg/kg"


[in] Returns the measured LD50 for the input compound. Input: CC1CSC2=C1c1c(O)cc(C(C)CCCc3ccc(F)cc3)cc1OC2(C)C (stereo not drawn)
[out] 500 mg/kg

* * *

Test system: Rattus norvegicus
Experiment: Antipsychotic activity in rat assessed as reduction of methamphetamine-induced hyperactivity at 10 mg/kg, po administered prior to methamphetamine challenge relative to vehicle-treated control
Assay type: functional
Set-up: scale not given: the % may be the effect or the level left
ENDPOINT: Activity (%)
Give bare numbers, in %.

[[record]]
molecule = "CCCCCc1cc(O)c2c(c1)OC(C)(C)[C@@H]1CCC(C)=C[C@@H]21"
endpoint = "Activity"
result_units = "%"
result_number = 41

[[record]]
molecule = "C#CCN1CCC2=C(C1)c1c(O)cc(C(C)CCCc3ccc(F)cc3)cc1OC2(C)C (centres undefined)"
endpoint = "Activity"
result_units = "%"
result_number = 8

[[record]]
molecule = "C#CCN1CCC2=C(C1)c1c(O)cc(C(C)CCc3ccc(F)cc3)cc1OC2(C)C (centres undefined)"
endpoint = "Activity"
result_units = "%"
result_number = 0

[[record]]
molecule = "CC1CCC2=C(C1)c1c(O)cc(C(C)CCCCc3ccc(F)cc3)cc1OC2(C)C (centres undefined)"
endpoint = "Activity"
result_units = "%"
result_number = 71

[[record]]
molecule = "CC1CCC2=C(C1)c1c(OC(=O)CCCN3CCOCC3)cc(C(C)CCCc3ccc(F)cc3)cc1OC2(C)C.Cl (centres undefined)"
endpoint = "Activity"
result_units = "%"
result_number = 95


Need Activity for each of these molecules.
1. C#CCN1CCC2=C(C1)c1c(O)cc(C(C)CCCCc3ccc(F)cc3)cc1OC2(C)C (centres undefined)
2. CN(C)CCCN1c2ccccc2Sc2ccc(Cl)cc21
3. C#CCN1CCC2=C(C1)c1c(O)cc(C(C)C(C)CCCCC)cc1OC2(C)C (centres undefined)
4. CC1CCC2=C(C1)c1c(O)cc(C(C)C(C)Cc3ccc(F)cc3)cc1OC2(C)C (centres undefined)

[out]
1: 50; 2: 83; 3: 74; 4: 28
